Entries and their Kd values follow.
# Target under test: Recombinant protein Claudin 18.2
# Sequence (chain, as listed by the source limits assumed, form in doubt): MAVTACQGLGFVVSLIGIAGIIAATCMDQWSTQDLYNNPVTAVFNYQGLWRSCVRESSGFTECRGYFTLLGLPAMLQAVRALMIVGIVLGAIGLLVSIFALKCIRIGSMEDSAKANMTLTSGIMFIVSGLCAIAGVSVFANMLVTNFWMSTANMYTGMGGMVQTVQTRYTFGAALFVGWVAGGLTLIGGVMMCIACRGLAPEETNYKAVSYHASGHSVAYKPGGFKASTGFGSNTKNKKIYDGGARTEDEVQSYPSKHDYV
# Test method notes: ELISA on plate-coated recombinant Claudin 18.2, OD450; Kd table under the graph, no unit in the table, unit from the x axis log[antibody] nM
// return numeric value only (unit: nM, not printed)

Recorded Kd, per entry:
h5C9oz (antibody, V domains shown) VH: EVQLVESGGGLVQPGGSLRLSCAVSGYTFSMNWVRQAPGKGLEWVAWINMYTGEPTYADDFKGRFTISRDDSKNTLYLQMNSLRAEDTAVYYCARLSRGNSLDYWGQGTLVTVSS VL: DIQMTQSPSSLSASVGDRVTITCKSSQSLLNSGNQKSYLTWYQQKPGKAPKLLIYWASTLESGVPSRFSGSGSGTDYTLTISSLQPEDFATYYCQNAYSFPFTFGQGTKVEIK: 0.0778
h5C9oar (antibody, V domains shown) VH: EVQLVESGGGLVQPGGSLRLSCAVSGYTFSMNWVRQAPGKGLEWVAWINMYTGEPNYADDFKGRFTISRDDSKNTLYLQMNSLRAEDTAVYYCARLYNGNSLDYWGQGTLVTVSS VL: DIQMTQSPSSLSASVGDRVTITCKSSQSLLNWGNQKSYLTWYQQKPGKAPKLLIYWASTLWSGVPSRFSGSGSGTDYTLTISSLQPEDFATYYCQNAYSFPFTFGQGTKVEIK: 0.149

Now turn to the next binder.
Prompt: # query: Kd of entry h5C9ok (antibody, V domains shown) VH: EVQLVESGGGLVQPGGSLRLSCAVSGYTFSMNWVRQAPGKGLEWVAWINMYTGEPTYADDFKGRFTISRDDSKNTLYLQMNSLRAEDTAVYYCARLTRGNSLDYWGQGTLVTVSS VL: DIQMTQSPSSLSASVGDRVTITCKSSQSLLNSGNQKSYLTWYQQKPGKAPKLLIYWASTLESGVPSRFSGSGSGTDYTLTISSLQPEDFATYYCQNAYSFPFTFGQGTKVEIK
Completion: 0.108
